- Target under test: UniProt:Q96P20
- Method summary: NLRP3 inflammasome inhibitory activity: inhibition of IL-1β production in THP1-Null cells (PMA, LPS, Nigericin)
- Particulars: Nigericin 7.5 μmol/L
Measured quantity: pIC50
pIC50 (log units): -log10 of the concentration in mol/L.

> print(dat)
                                   compound  target.under.test  reported.value
1  Cc1cc(Br)cc(C)c1-n1cc2c(=O)[nH]c(-c3ccnnc3)nc2n1 [Example 15]     UniProt:Q96P20            7.82

Problem: Value lookup for pIC50; key = Cc1cc(C(C)(F)F)cc(C)c1-n1cc2c(=O)[nH]c(-c3cscn3)nc2n1 [Example 58]
Result: 8.52

Problem: # input compound: Cc1cccc(C)c1-n1cc2c(=O)[nH]c(-c3ccn(C)n3)nc2n1 [Example 44] ; wanted: its pIC50
Result: 6.06

Problem: Would you kindly share the measured pIC50 for Cc1cc(Br)cc(C)c1-n1cc2c(=O)[nH]c(-c3cccnn3)nc2n1 [Example 23] ?
Result: 7.66

Problem: Looking for the measured pIC50 of COCCn1nccc1-c1nc2nn(-c3c(C)cc(Br)cc3C)cc2c(=O)[nH]1 [Example 17] , can you help?
Result: 6.66

----------
Recorded log10(IC50) values for a group of molecules are listed next.
- Target under test: NLRP3 inflammasome (Homo sapiens (Human))
- Method summary: NLRP3 inflammasome inhibitory activity: inhibition of IL-1β production in THP1-Null cells (PMA, LPS, Nigericin)
- Particulars: Nigericin 7.5 μmol/L
- Experimental: The NLRP3 inflammasome inhibitory activity of test compounds were evaluated on the basis of the inhibitory activity of the IL-1β production in THP1-Null cells (Product Number: thp-null, InvivoGen). […] The amount of IL-1β in the culture supernatant was quantitated with AlphaLISA (registered trademark) Human IL-1β Detection Kit (Product Number: AL220C, Perkin Elmer). […]
For clarity, the numbers are log10 values of IC50 expressed in nM.

Some entries whose results are on file:
> print(dat)
                                   molecule  measured.quantity  reported.value
1  Cc1cc(C2CC2)cc(CO)c1-n1cc2c(=O)[nH]c(-c3ccn(C)n3)nc2n1 [Example 49]        log10(IC50)            1.57
2  CCn1ccc(-c2nc3nn(-c4c(C)cc(Br)cc4C)cc3c(=O)[nH]2)n1 [Example 30]        log10(IC50)            1.60
3  Cc1cc(C2CC2)cc(C)c1-n1cc2c(=O)[nH]c(-c3cscn3)nc2n1 [Example 52]        log10(IC50)            0.30
4  COc1nccc(-c2nc3nn(-c4c(C)cc(Br)cc4C)cc3c(=O)[nH]2)n1 [Example 34]        log10(IC50)            1.43
5  Cc1cc(Br)cc(C)c1-n1cc2c(=O)[nH]c(-c3cn(C)nn3)nc2n1 [Example 21]        log10(IC50)            1.11

Problem: Please report the recorded log10(IC50) for Cc1cc(Br)cc(C)c1-n1cc2c(=O)[nH]c(-c3cnccn3)nc2n1 [Example 22] .
Result: 1.83

Problem: Reported log10(IC50), molecule Cc1cc(C2CC2)cc(C)c1-n1cc2c(=O)[nH]c(-c3cnn4c3OCCC4)nc2n1 [Example 53] : ____
Result: 2.38

Problem: Returns the measured log10(IC50) for the input molecule. Input: Cc1cc(C(C)(F)F)cc(C)c1-n1cc2c(=O)[nH]c(-c3nc[nH]n3)nc2n1 [Example 60]
Result: 2.59

Problem: Using the record for COCCn1ccc(-c2nc3nn(-c4c(C)cc(Br)cc4C)cc3c(=O)[nH]2)n1 [Example 16] , report its log10(IC50).
Result: 1.67

Problem: Using the record for Cc1cn(C)nc1-c1nc2nn(-c3c(C)cc(C4CC4)cc3C)cc2c(=O)[nH]1 [Example 6] , report its log10(IC50).
Result: 1.70

Problem: Requested read-out: log10(IC50). Entry: Cc1cc(C2CC2)cc(C)c1-n1cc2c(=O)[nH]c(-c3ccncc3F)nc2n1 [Example 36]
Result: 1.20

Problem: Need log10(IC50) of Cc1cc(C2CC2)cc(C)c1-n1cc2c(=O)[nH]c(-c3cn(C)cn3)nc2n1 [Example 39] , thanks.
Result: 1.36

Problem: Query (molecule): Cc1cc(Br)cc(C)c1-n1cc2c(=O)[nH]c(-c3cc(C(F)(F)F)ncn3)nc2n1 [Example 31] ; field requested: log10(IC50)
Result: 2.97

Problem: Can you look up the measured log10(IC50) of Cc1cc(C(F)(F)F)cc(C)c1-n1cc2c(=O)[nH]c(-c3ccncc3F)nc2n1 [Example 33] for me?
Result: 1.34

Problem: Consider the molecule Cc1cc(C(F)(F)F)cc(C)c1-n1cc2c(=O)[nH]c(-c3ccn(C)n3)nc2n1 [Example 29] and give its measured log10(IC50).
Result: 1.84

----------
Items are presented alongside their recorded IC50.
- Target under test: NLRP3 inflammasome (Homo sapiens (Human))
- Method summary: NLRP3 inflammasome inhibitory activity: inhibition of IL-1β production in THP1-Null cells (PMA, LPS, Nigericin)
- Particulars: Nigericin 7.5 μmol/L
Response body: numeric value in nM, unit text excluded.

> print(dat)
                            smiles.notation  reported.value
1  COCCn1ccc(-c2nc3nn(-c4c(C)cc(C5CC5)cc4C)cc3c(=O)[nH]2)n1              23
2  Cc1cc(C2CC2)cc(C)c1-n1cc2c(=O)[nH]c(-c3ccnn3C)nc2n1              23
3  Cc1cc(Br)cc(C)c1-n1cc2c(=O)[nH]c(-c3ccncn3)nc2n1             7.8
4  Cc1cc(Br)cc(C)c1-n1cc2c(=O)[nH]c(-c3nn(C)cc3F)nc2n1              36

Problem: Find the recorded IC50 belonging to Cc1cc(C(C)(F)F)cc(C)c1-n1cc2c(=O)[nH]c(-c3ccn(C)n3)nc2n1 and report it.
Result: 33

----------
Catalogue of pIC50 readings, one per entry.
- Target under test: NLRP3 inflammasome (Homo sapiens (Human), UniProt Q96P20)
- Sequence (Q96P20 whole entry): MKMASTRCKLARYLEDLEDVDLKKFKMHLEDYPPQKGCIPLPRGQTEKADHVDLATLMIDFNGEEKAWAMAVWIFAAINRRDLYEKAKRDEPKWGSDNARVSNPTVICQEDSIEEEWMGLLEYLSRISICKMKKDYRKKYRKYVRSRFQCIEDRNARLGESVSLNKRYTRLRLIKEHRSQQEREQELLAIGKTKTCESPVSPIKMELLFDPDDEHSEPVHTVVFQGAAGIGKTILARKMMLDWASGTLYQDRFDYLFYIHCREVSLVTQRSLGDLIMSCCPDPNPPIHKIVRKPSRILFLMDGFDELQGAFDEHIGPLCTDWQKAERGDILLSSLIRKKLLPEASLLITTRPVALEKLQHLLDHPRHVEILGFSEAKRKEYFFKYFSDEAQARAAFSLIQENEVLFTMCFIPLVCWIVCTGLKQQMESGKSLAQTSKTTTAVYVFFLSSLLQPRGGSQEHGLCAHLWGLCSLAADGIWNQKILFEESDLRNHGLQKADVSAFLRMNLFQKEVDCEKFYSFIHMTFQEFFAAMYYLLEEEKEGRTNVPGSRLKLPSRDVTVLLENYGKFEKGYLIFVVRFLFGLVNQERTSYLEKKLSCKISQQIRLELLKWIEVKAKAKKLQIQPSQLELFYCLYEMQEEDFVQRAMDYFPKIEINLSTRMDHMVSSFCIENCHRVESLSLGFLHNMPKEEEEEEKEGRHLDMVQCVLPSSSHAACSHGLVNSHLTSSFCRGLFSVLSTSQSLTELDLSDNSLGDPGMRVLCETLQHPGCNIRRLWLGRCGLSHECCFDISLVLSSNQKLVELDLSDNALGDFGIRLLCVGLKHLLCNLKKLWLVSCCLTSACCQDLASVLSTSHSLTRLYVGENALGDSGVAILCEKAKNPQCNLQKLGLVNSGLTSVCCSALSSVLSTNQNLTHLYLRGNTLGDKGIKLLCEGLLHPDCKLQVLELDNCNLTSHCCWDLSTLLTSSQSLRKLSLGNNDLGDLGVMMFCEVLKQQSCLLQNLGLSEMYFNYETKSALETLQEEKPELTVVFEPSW
- Method summary: NLRP3 inflammasome inhibitory activity: inhibition of IL-1β production in THP1-Null cells (PMA, LPS, Nigericin)
- Particulars: Nigericin 7.5 μmol/L
FYI, pIC50 means -log10 of a concentration in mol per litre.

> print(dat)
                                   compound                         target.under.test  reported.value
1  COCc1cc(C2CC2)cc(C)c1-n1cc2c(=O)[nH]c(-c3ccn(C)n3)nc2n1 [Example 40]  NLRP3 inflammasome (Homo sapiens (Human), UniProt Q96P20)            8.20
2  Cc1cc(Br)cc(C)c1-n1cc2c(=O)[nH]c(-c3cnn(C)c3)nc2n1 [Example 11]  NLRP3 inflammasome (Homo sapiens (Human), UniProt Q96P20)            7.74

Problem: Bench note: what pIC50 did Cc1cc(OC(F)F)cc(C)c1-n1cc2c(=O)[nH]c(-c3ccn(C)n3)nc2n1 [Example 9] show?
Result: 7.31

Problem: Requested field: pIC50. Item: Cc1cc(C2CC2)cc(C)c1-n1cc2c(=O)[nH]c(-c3ccnnc3)nc2n1 [Example 28]
Result: 7.96

Problem: Given Cc1ccccc1-n1cc2c(=O)[nH]c(-c3ccn(C)n3)nc2n1 [Example 1] , state its recorded pIC50.
Result: 5.42

Problem: Return reported pIC50; argument: COc1cc(C)c(-n2cc3c(=O)[nH]c(-c4ccn(C)n4)nc3n2)c(C)c1 [Example 2]
Result: 7.19

Problem: Bench note: what pIC50 did Cc1cc(C2CC2)cc(C)c1-n1cc2c(=O)[nH]c(-c3cc4n(n3)CCC4)nc2n1 [Example 57] show?
Result: 8.05

Problem: Param item = Cc1cc(C2CC2)cc(C)c1-n1cc2c(=O)[nH]c(-c3cc4n(n3)CCOC4)nc2n1 [Example 54] ; retrieve measured pIC50.
Result: 8.05

----------
- Target under test: NLRP3 inflammasome (Homo sapiens (Human), UniProt Q96P20)
- Method summary: NLRP3 inflammasome inhibitory activity: inhibition of IL-1β production in THP1-Null cells (PMA, LPS, Nigericin)
- Particulars: Nigericin 7.5 μmol/L
- Experimental: The NLRP3 inflammasome inhibitory activity of test compounds were evaluated on the basis of the inhibitory activity of the IL-1β production in THP1-Null cells (Product Number: thp-null, InvivoGen). […] The amount of IL-1β in the culture supernatant was quantitated with AlphaLISA (registered trademark) Human IL-1β Detection Kit (Product Number: AL220C, Perkin Elmer). […]
# note: boundary value 40 nM maps to class 0; IC50 below it maps to class 1

> print(dat)
                            smiles.notation      cat
1  Cc1cc(C2CC2)cc(C)c1-n1cc2c(=O)[nH]c(-c3nn(C)cc3F)nc2n1  class 1
2  Cc1csc(-c2nc3nn(-c4c(C)cc(C5CC5)cc4C)cc3c(=O)[nH]2)n1  class 1
3  Cc1cc(-c2nc3nn(-c4c(C)cc(Br)cc4C)cc3c(=O)[nH]2)no1  class 1
4  Cc1nnc(-c2nc3nn(-c4c(C)cc(Br)cc4C)cc3c(=O)[nH]2)o1  class 0

Problem: # check: IC50 < 40 nM for COc1cc(C)c(-n2cc3c(=O)[nH]c(-c4cnn(C)c4)nc3n2)c(C)c1
Result: class 0

Problem: Consider Cc1cc(Br)cc(C)c1-n1cc2c(=O)[nH]c(-c3ccnc(C(F)(F)F)n3)nc2n1 . Does its IC50 lie strictly below 40 nM?
Result: class 0

Problem: is_below(IC50, 40 nM) for Cc1cc(C2CC2)cc(C)c1-n1cc2c(=O)[nH]c(-c3cnn(C)c3)nc2n1 ?
Result: class 1
